Quick reference: IC50 of the listed items.
studyTarget: aldosterone synthase (Homo sapiens, UniProt P19099)
Construct: host or cells: NCI-H295R
Sequence (P19099 25-503): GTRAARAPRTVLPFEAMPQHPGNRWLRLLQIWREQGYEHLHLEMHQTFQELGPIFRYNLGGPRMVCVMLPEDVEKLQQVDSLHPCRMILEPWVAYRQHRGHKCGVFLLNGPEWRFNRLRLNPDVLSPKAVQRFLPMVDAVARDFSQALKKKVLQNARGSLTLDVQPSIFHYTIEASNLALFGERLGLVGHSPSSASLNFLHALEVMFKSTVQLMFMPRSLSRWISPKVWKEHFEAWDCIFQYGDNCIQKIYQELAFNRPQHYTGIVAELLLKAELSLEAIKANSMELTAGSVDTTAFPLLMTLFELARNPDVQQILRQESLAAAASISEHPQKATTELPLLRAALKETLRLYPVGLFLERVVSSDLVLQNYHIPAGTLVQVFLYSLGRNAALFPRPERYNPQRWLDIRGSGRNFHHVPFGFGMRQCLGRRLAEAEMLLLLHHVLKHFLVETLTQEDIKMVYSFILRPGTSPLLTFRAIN
assayProcedure: Aldosterone cell secretion in Ang II-stimulated NCI-H295R cells (SPA with anti-aldosterone antibody)
Type: cell-based
conditionParameters: human adrenocortical carcinoma NCI-H295R cells, 1 μM Ang II, 24 h
Reply with just the number (in nM).

> print(dat)
                                   compound                               studytarget  readoutnumber
1  CCS(=O)(=O)NC(c1ccc(F)cc1)c1cncc(-c2ccc(C#N)c(C)c2)c1 (stereo not shown)  aldosterone synthase (Homo sapiens, UniProt P19099)            121
2  CCS(=O)(=O)NC(c1cncc(-c2ccc(OC(F)(F)F)cc2)c1)C1CC1 (stereo not shown)  aldosterone synthase (Homo sapiens, UniProt P19099)            110
3  N#Cc1ccc(-c2cncc(NS(=O)(=O)Cc3ccccc3Cl)c2)cc1Cl  aldosterone synthase (Homo sapiens, UniProt P19099)             45
4  CCS(=O)(=O)NCc1cncc(-c2cc3cnc(Cl)cc3n2C)c1  aldosterone synthase (Homo sapiens, UniProt P19099)            165
5  CCS(=O)(=O)N(C)C(c1cncc(-c2ccc(C#N)c(Cl)c2)c1)C1CC1 (stereo not shown)  aldosterone synthase (Homo sapiens, UniProt P19099)              5

Enquiry: IC50 for `CCS(=O)(=O)N[C@H](c1cncc(-c2ccc(C#N)c(Cl)c2)c1)C1CC1` ?
Return: 24

Enquiry: Now give it for `COc1ccc(S(=O)(=O)Nc2cncc(-c3ccc(C#N)c(Cl)c3)c2)cc1` too.
Return: 9

Enquiry: Item: CCS(=O)(=O)NC(c1cncc(-c2ccc(Cl)cc2)c1)C1CC1 (stereo not shown)
Return: 42

Enquiry: Same for CCS(=O)(=O)NC1CC1c1cncc(-c2cccc(Cl)c2Cl)c1 (stereo not shown)
Return: 3

Enquiry: Cool, now `CCS(=O)(=O)NCc1cncc(-c2nc3ccc(Cl)cc3n2C)c1`
Return: 97

----------
studyTarget: aldosterone synthase (Homo sapiens)
Construct: host or cells: NCI-H295R
assayProcedure: Aldosterone cell secretion in Ang II-stimulated NCI-H295R cells (SPA with anti-aldosterone antibody)
Assay type: cell-based
conditionParameters: human adrenocortical carcinoma NCI-H295R cells, 1 μM Ang II, 24 h
Measured IC50 of individual entries
// return numeric value only (unit: nM, not printed)

Enquiry: For the compound CCS(=O)(=O)N(CCO)C(c1cncc(-c2ccc(C#N)c(Cl)c2)c1)C1CC1 (centres unmarked) , what IC50 is on record?
Return: 20

Enquiry: Thanks! And CCS(=O)(=O)NC(c1cncc(-c2ccc(F)c(Cl)c2)c1)C1CC1 (centres unmarked) ?
Return: 22

Enquiry: And what about the compound `CCS(=O)(=O)NCc1cncc(-c2cc3ccc(Cl)nc3n2C)c1` ?
Return: 8

Enquiry: Now the compound `CCS(=O)(=O)NC(C)(C)c1cncc(-c2ccc(C#N)c(Cl)c2)c1`
Return: 99

Enquiry: Another compound to look at: `CCS(=O)(=O)N[C@@H](c1cncc(-c2ccc(C#N)c(Cl)c2)c1)C1CC1`
Return: 56

src = patent US8809545B2
